Tested on: tetranychus telarius Linnaeus
Test Name: Laboratory toxicity test against tetranychus telarius Linnaeus (Pasting Method)
Type: in vivo
Condition Summary: mature female mites, glass slide immersion 5 seconds, time 24 (hour)
// values below are reported LC90
Reported Metric: LC90 (ppm)

| Compound | Data Value |
| --- | --- |
| CC(C)[C@H](C(=O)O[C@@H](C#N)c1cccc(Oc2ccc(Br)cc2)c1)c1ccc(OC(F)F)cc1 | 130 |
| CC(C)[C@@H](C(=O)O[C@@H](C#N)c1cccc(Oc2ccc(Br)cc2)c1)c1ccc(OC(F)F)cc1 | 8000 |
| CC(C)[C@H](C(=O)O[C@H](C#N)c1cccc(Oc2ccc(Br)cc2)c1)c1ccc(OC(F)F)cc1 (relative stereo) [A] | 110 |
| CC(C)[C@H](C(=O)O[C@H](C#N)c1cccc(Oc2ccc(Br)cc2)c1)c1ccc(OC(F)F)cc1 [Ia] | 52 |
| CC(C)[C@@H](C(=O)O[C@H](C#N)c1cccc(Oc2ccc(Br)cc2)c1)c1ccc(OC(F)F)cc1 | 2580 |
| CC(C)C(C(=O)OC(C#N)c1cccc(Oc2ccc(Br)cc2)c1)c1ccc(OC(F)F)cc1 (stereo not drawn) [compound I, reference compound] | 232 |
